Let's look at some compounds and their measured IC50.
targetSystem: KRAS G12S (Homo sapiens, UniProt P01116, G12S)
Construct: made in house; host or cells: E. coli, e.g. BL21 (DE3)
Sequence (P01116 1-188 isoform P01116-2 G12S): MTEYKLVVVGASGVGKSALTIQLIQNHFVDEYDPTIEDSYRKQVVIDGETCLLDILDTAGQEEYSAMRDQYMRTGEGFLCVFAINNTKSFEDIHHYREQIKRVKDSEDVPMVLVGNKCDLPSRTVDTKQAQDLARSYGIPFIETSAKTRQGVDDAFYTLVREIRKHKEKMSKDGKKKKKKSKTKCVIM
experimentDescription: HTRF KRAS-SOS1 interaction assay, KRAS G12S
Format: biochemical
conditions: binned ≤2 μM / >2 μM, read-out: Inhibition of KRAS G12S (IC50)

compound | IC50
C=C(F)[C@@H](c1cccnc1N)N1CCOc2c(Cl)c(-c3ccc(F)c4sc(N)c(C#N)c34)c(F)c3nc(OC[C@@]45CCCN4C[C@H](F)C5)nc1c23 | ≤ 2 µM
N#Cc1c(N)sc2c(F)ccc(-c3c(C(F)(F)F)c4c5c(nc(OC[C@@]67CCCN6C[C@H](F)C7)nc5c3F)N([C@H](CCC3COCCO3)c3cccnc3N)CCO4)c12 (mixture of isomers) [Compound 648] | ≤ 2 µM
N#Cc1c(N)sc2c(F)ccc(-c3c(Cl)c4c5c(nc(OC[C@@]67CCCN6C[C@H](F)C7)nc5c3F)N(Cc3cccnc3N)C3COCC3CO4)c12 (mixture of isomers) | ≤ 2 µM

----------
Let's look at some molecules and their measured pIC50.
targetSystem: KRAS G12D (Homo sapiens, UniProt P01116, G12D)
Sequence (P01116 1-188 isoform P01116-2 G12D): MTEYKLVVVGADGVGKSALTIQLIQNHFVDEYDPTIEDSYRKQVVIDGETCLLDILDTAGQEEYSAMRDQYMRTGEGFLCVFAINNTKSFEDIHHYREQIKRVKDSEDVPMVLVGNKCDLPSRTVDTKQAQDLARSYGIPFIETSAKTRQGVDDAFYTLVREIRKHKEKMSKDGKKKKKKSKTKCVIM
experimentDescription: HTRF KRAS-SOS1 interaction assay, KRAS G12D
conditions: binned ≤2 μM / >2 μM, read-out: Inhibition of KRAS G12D (IC50)
pIC50: −log10 of the molar value.

molecule | pIC50
N#Cc1c(N)sc2c(F)ccc(-c3c(C(F)(F)F)c4c5c(nc(OC[C@@]67CCCN6C[C@H](F)C7)nc5c3F)N([C@@H](c3cccnc3N)C(F)F)CCO4)c12 (single isomer, unassigned) | ≥ 5.70
N#Cc1c(N)sc2c(F)ccc(-c3c(C(F)(F)F)c4c5c(nc(OC[C@@]67CCCN6C[C@H](F)C7)nc5c3F)N([C@H](CCCN3CCCCC3)c3cccnc3N)CCO4)c12 (single isomer, unassigned) | ≥ 5.70
CCO/N=C(\C)CCC[C@H](c1cccnc1N)N1CCOc2c(C(F)(F)F)c(-c3ccc(F)c4sc(N)c(C#N)c34)c(F)c3nc(OC[C@@]45CCCN4C[C@H](F)C5)nc1c23 (single isomer, unassigned) [Compound 859] | < 5.70
CN(C)C(=O)C[C@H](c1cccnc1N)N1CCOc2c(C(F)(F)F)c(-c3ccc(F)c4sc(N)c(C#N)c34)c(F)c3nc(OC[C@@]45CCCN4C[C@H](F)C5)nc1c23 | ≥ 5.70
C[C@@H]1COCCN1CC1(COc2nc3c4c(c(C(F)(F)F)c(-c5ccc(F)c6sc(N)c(C#N)c56)c(F)c4n2)OCCN3[C@H](C)c2cccnc2N)CC1 (single isomer, unassigned) [Compound 807] | < 5.70
CO[C@H]1CCN(C)[C@@H]1COc1nc2c3c(c(C(F)(F)F)c(-c4ccc(F)c5sc(N)c(C#N)c45)c(F)c3n1)OCCN2[C@H](C)c1cccnc1N | ≥ 5.70
N#Cc1c(N)sc2c(F)ccc(-c3c(C(F)(F)F)c4c5c(nc(OC[C@@]67CCCN6CC(=C(F)F)C7)nc5c3F)N([C@H](CCC(F)(F)F)c3cc(F)cnc3N)CCO4)c12 | ≥ 5.70
C[C@H](c1cccnc1N)N1CCOc2c(Cl)c(-c3ccc(F)c4sc(N)c(C#N)c34)c(F)c3nc(OC[C@@]45CCCN4C[C@@]4(CC4(F)F)C5)nc1c23 | ≥ 5.70
CCON=C(C)CC[C@H](c1cccnc1N)N1CCOc2c(C(F)(F)F)c(-c3ccc(F)c4sc(N)c(C#N)c34)c(F)c3nc(OC[C@@]45CCCN4C[C@H](F)C5)nc1c23 (mixture of isomers) | ≥ 5.70
N#Cc1c(N)sc2c(F)ccc(-c3c(C(F)(F)F)c4c5c(nc(OC[C@@]67CCCN6C[C@@]6(CC6(F)F)C7)nc5c3F)N([C@H](CC3CCOCC3)c3cccnc3N)CCO4)c12 | ≥ 5.70

Values were extracted from patent US12668600B2.
